Sourced from ChEMBL document CHEMBL4145507

- tested-system: Estrogen receptor (Homo sapiens, UniProt P03372)
- Sequence (P03372 whole entry): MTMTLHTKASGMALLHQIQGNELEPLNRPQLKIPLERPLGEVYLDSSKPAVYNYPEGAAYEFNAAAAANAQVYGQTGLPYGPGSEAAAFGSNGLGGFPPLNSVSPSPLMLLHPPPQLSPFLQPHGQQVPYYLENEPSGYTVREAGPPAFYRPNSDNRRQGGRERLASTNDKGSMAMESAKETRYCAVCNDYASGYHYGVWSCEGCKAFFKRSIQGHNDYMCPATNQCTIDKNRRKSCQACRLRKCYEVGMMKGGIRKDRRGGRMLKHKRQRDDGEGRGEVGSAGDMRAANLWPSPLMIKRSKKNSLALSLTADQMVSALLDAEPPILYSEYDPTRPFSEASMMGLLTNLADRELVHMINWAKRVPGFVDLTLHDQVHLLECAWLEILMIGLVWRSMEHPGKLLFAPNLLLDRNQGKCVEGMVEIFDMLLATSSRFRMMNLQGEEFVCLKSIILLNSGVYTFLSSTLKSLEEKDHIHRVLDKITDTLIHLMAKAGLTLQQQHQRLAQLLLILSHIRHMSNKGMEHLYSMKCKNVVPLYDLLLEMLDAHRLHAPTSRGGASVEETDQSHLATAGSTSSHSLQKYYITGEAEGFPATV
- test-method-notes: Displacement of fluoromone TM from recombinant human ERalpha after 2 hrs by fluorescence polarization analysis
Assign IC50 to each entry below.
A number alone suffices; assume nM.

Notebook: Brc1ccc2[nH]c(-c3cc4ccccc4[nH]3)nc2c1 , IC50 read as 80.4

Notebook: Brc1ccc2[nH]c(-c3cc4ccccc4n3Cc3ccccc3)nc2c1 , IC50 read as 73.6

Notebook: Clc1cc2nc(-c3cc4ccccc4n3Cc3ccccc3)[nH]c2cc1Cl , IC50 read as 76.7
